System Under Test: Cytochrome P450 3A4 (Homo sapiens)
Assay Text: Cytochrome panel assay with activity outcomes
Test Settings: recombinant CYP, pro-luciferin dealkylation, luminescence, p450-cyp3a4; series mostly up to 57.1 µM
Procedure: The P450 gene superfamily is involved in the metabolism and clearance of xenobiotics. This assay used various human CYP P450 isozymes to measure the dealkylation of various pro-luciferin substrates to luciferin. The luciferin is then measured by luminescence after the addition of a luciferase detection reagent. […] Inhibitors and some substrates limit the production of luciferin, and decrease measured luminescence. […] 8, Detection, 1 sec, ViewLux luminescent read […]
Among all 16,000 compounds or so, about 5,100 (32%) were called active. About 25% were inconclusive and are not listed. This is one part of the list.
Measurement Kind: AC50

Below: 6 compounds and their reported AC50.
>>> assay_value("CC(=O)NC1(c2ccc(F)cc2)CCN(C(=O)Nc2ccc(F)cc2F)CC1")
"inactive"
>>> assay_value("CN(C)C(=O)c1ccc(-c2ccc3ncnc(NCc4cccs4)c3c2)cc1")
"10 µM (active)"
>>> assay_value("Cc1ccc(Cn2nnc3c(=O)[nH]c(C4CCCN(C(=O)Nc5ccc(F)cc5F)C4)nc32)cc1 (centres undefined)")
"7.08 µM (active)"
>>> assay_value("COc1ncc2nc(-c3cn(C)c4ccccc34)c(=O)n(CCC#N)c2n1")
"6.31 µM (active)"
>>> assay_value("Cc1ccccc1C(=O)N/N=C/c1ccncc1")
"7.08 µM (active)"
>>> assay_value("N#C/C(=C\\c1cn[nH]c1-c1ccccc1)C(=O)NC1CCCCCC1")
"7.08 µM (active)"

Given the entry CSc1nsc(SCc2ccc(Cl)cc2)n1 , report its measured AC50.
inactive

Given the entry c1coc(CN2CCN(C(c3cccs3)c3nnnn3C3CCCC3)CC2)c1 (centres undefined) , report its measured AC50.
14.1 µM (active)

Given the entry CCc1c(C)nc2ccc(Br)cc2c1Cl , report its measured AC50.
inactive

Given the entry Cc1cc(Cl)nc2ccc(Cc3ccc4nc(Cl)cc(C)c4c3)cc12 , report its measured AC50.
3.16 µM (active)

Given the entry CC12COC3(C(=O)Nc4nccs4)CC1CCC32C (centres undefined) , report its measured AC50.
14.1 µM (active)

----------
System Under Test: Cytochrome P450 3A4 (Homo sapiens) (UniProt P08684)
Sequence (P08684 whole entry, looked up): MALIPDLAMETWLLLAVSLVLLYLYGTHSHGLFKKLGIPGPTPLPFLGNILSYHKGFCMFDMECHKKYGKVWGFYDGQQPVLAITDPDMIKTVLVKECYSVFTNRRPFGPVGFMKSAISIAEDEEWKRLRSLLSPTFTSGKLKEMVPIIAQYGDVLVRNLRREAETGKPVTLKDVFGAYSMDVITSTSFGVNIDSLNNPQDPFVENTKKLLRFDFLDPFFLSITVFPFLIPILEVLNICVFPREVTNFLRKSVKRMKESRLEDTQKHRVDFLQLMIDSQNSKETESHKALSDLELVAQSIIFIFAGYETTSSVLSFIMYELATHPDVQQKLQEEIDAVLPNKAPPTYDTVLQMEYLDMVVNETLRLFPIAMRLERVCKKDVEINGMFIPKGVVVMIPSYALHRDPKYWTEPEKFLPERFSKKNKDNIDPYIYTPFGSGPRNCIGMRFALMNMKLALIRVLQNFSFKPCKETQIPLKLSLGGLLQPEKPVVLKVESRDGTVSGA
Assay Text: Cytochrome panel assay with activity outcomes; on activity, negative = inhibition: on the % scale 0 is the no-effect control and ±100 the full control effect
Test Settings: recombinant CYP, pro-luciferin dealkylation, luminescence, p450-cyp3a4; series mostly up to 57.1 µM
Out of some 16,000 compounds screened, about 5,100 (32%) were called active. Not shown: some 25% with an inconclusive outcome. Some of the results follow.
activity, negative = inhibition values by entry

Below: 6 compounds and their reported activity, negative = inhibition.
>>> assay_value("NC(=S)N/N=C/c1ccccc1OCc1cccc(Cl)c1")
"-18.2% [at 2.29 µM] (inactive)"
>>> assay_value("Cn1c(=O)c2[nH]c(CSCc3ccccc3)nc2n(C)c1=O")
"-25% [at 11.4 µM] (inactive)"
>>> assay_value("N=C1CCC[C@@H]1C(=S)SCCC(N)=O")
"-30.7% [at 11.4 µM] (inactive)"
>>> assay_value("O=C(O)CCCc1ccc2ccc3ccccc3c2c1")
"-10% [at 11.4 µM] (inactive)"
>>> assay_value("O=C(SCc1cccc2ccccc12)c1ccc(Cl)cc1")
"-17.6% [at 11.4 µM] (inactive)"
>>> assay_value("COc1ccc(-n2nc3cc(C)c(NC(=S)NC(=O)c4ccccc4C)cc3n2)cc1")
"-17.3% [at 11.4 µM] (inactive)"

Form: Entry = CC[C@](N)(C(=O)O)C(C)C | System = Cytochrome P450 3A4 (Homo sapiens) (UniProt P08684) | activity, negative = inhibition = ____
-7.26% [at 11.4 µM] (inactive)

Form: Entry = COc1cc(O)c2c(O)c3c(c4c2c1[C@@]1(C4)C(C)=CCCC1(C)C)[C@H](O)[C@@]1(O)CC(=O)C(C(N)=O)=C(O)[C@]1(O)C3=O | System = Cytochrome P450 3A4 (Homo sapiens) (UniProt P08684) | activity, negative = inhibition = ____
-13.9% [at 11.4 µM] (inactive)

Form: Entry = Cn1c(=S)c2[nH]c(SCCN3CCCC3)nc2n(C)c1=O | System = Cytochrome P450 3A4 (Homo sapiens) (UniProt P08684) | activity, negative = inhibition = ____
-16% [at 11.4 µM] (inactive)

Form: Entry = CCN(CCO)C[C@H]1CCC[C@H]2CCCC[C@@H]21 | System = Cytochrome P450 3A4 (Homo sapiens) (UniProt P08684) | activity, negative = inhibition = ____
-20% [at 11.4 µM] (inactive)
